System: vacuolar type H^+ -ATPase
Assay: Inhibition of vacuolar type H^+ -ATPase proton transport
Type: biochemical
Details: microsomes from mouse peritoneal macrophages; acridine orange uptake; concentration 1×10^-6 M; pH 7.0
Structures can show the parent of a compound that is named as a salt.
endpoint_name: Inhibition (%) of vacuolar type H^+ -ATPase proton transport

>  <molecule>
C#Cc1cnc2c(NC(=O)c3c(Cl)cccc3Cl)cccc2c1

>  <reported_result>
100

$$$$
>  <molecule>
C=Cc1cnc2c(NC(=O)c3c(Cl)cccc3Cl)cccc2c1CC(=O)NCc1ccccn1

>  <reported_result>
93

$$$$
>  <molecule>
C=CCc1cnc2c(NC(=O)c3c(Cl)cccc3Cl)cccc2c1Sc1ncc[nH]1 [28 (dihydrochloride)]

>  <reported_result>
94

$$$$
>  <molecule>
O=C(Nc1cccc2c(-n3cccn3)ccnc12)c1c(Cl)cccc1Cl [85-(2) (free)]

>  <reported_result>
97

$$$$
>  <molecule>
Cl.N#Cc1cnc2c(NC(=O)c3c(Cl)cccc3Cl)cccc2c1Cn1ccnc1 [52 (hydrochloride)]

>  <reported_result>
100

$$$$

src = patent US6008230A
